- System: MDA-MB-435 melanoma
- Assay Details: NCI-60 one-dose screen, 48 h
- Study Conditions: 10 µM unless noted
The panel holds about 83,000 compounds, 20% with a hit somewhere; the sample as a whole holds those more often. The source made the active and inactive calls. How the source made its calls: active means growth percent below 10; inactive means the rest.
Hi there, use one of these labels in your reply, thanks! class 1 for active, class 0 for inactive

[[record]]
compound = "O=c1[nH]c(Cc2nc3ccccc3s2)nc2cc(Br)ccc12"
assay_system = "MDA-MB-435 melanoma"
classification = "class 0"


Hi team, can someone confirm the assay call for O=C1NC(=O)C(Cc2ccc(OCc3ccc(-c4ccc(Cl)cc4Cl)cc3)cc2)S1 (stereo not given) ?
class 0

Hi team, can someone confirm the assay call for [O-]/[N+](=C\c1ccc(-n2cc(Cc3ccccc3Cc3cn(-c4ccc(/C=[N+](/[O-])c5ccccc5)cc4)nn3)nn2)cc1)c1ccccc1 ?
class 0

Hi team, can someone confirm the assay call for COc1cc2oc(-c3cccc(NC(=O)c4ccccc4)c3)cc(=O)c2c(OC)c1OC ?
class 0

Hi team, can someone confirm the assay call for O=C(N/N=C/c1c(Cl)cccc1Cl)c1cccnc1Nc1cccc(C(F)(F)F)c1 ?
class 0

Hi team, can someone confirm the assay call for CC(C)c1ccc(C(=O)Nc2sc3c(c2C(N)=O)CCC(=O)C3)cc1 ?
class 1

Hi team, can someone confirm the assay call for CCOC(=O)C1=C(C)NC(=O)NC1c1c(Cl)n(CCCl)c2ccccc12 (stereo not given) ?
class 0

====

- Tested on: RPMI-8226 leukemia
- Assay Details: NCI-60 one-dose screen, 48 h
- Study Conditions: 10 µM unless noted
The panel holds about 83,000 compounds, 20% with a hit somewhere; the sample as a whole holds those more often. Activity calls are given as the source filed them. The calls were made as follows: active = growth percent below 10; inactive = the rest.
Hi there, use one of these labels in your reply, thanks! active, inactive

Consider the worked cases shown below.
[[record]]
compound = "CCCc1c(OC(=O)c2ccccc2)nc2[nH]c(=O)sc2c1C"
classification = "inactive"

[[record]]
compound = "CN1CCc2nc3sc(C(N)=O)c(N)c3c(-c3cccs3)c2C1"
classification = "inactive"

[[record]]
compound = "Cc1ccc(C2=Nc3c(N)ncnc3NC(c3cccc(Nc4ccnc5cc(C(F)(F)F)ccc45)c3)C2)cc1 (stereo not drawn)"
classification = "active"

[[record]]
compound = "O=S(=O)(NCCNc1nccc(-c2c(-c3ccc(F)c(O)c3)nc3sccn23)n1)c1ccc(O)cc1"
classification = "inactive"


Hi team, can someone confirm the assay call for COc1cc(-c2nccc3[nH]c(-c4ccc5cc[nH]c5c4)nc23)cc(OC)c1OC ?
active

Hi team, can someone confirm the assay call for O=C(c1ccncc1)N1N=C(c2ccc(Cl)cc2)C[C@H]1c1cn(-c2ccccc2)nc1-c1ccccc1 ?
inactive

Hi team, can someone confirm the assay call for CCn1cc(C(=O)O)c(=O)c2cc(F)c(N3CCN(CC(=O)Nc4ccc(S(=O)(=O)Nc5nccc(C)n5)cc4)C(C)C3)c(F)c21 (stereo not drawn) ?
inactive

Hi team, can someone confirm the assay call for Oc1c(I)cc(I)cc1CNCc1ccccn1 ?
inactive

Hi team, can someone confirm the assay call for c1cc2c(ccc3[nH]c(-c4ccc5[nH]ncc5c4)c4c(c32)CCCC4)n1 ?
inactive

Hi team, can someone confirm the assay call for COC(=O)C1Cc2ccccc2CN1C(=O)c1ccc2c(c1)Cc1ccccc1-2 (stereo not drawn) ?
inactive

Hi team, can someone confirm the assay call for COc1cc(OCc2cccc(Br)c2C)cc(OC)c1C=O ?
inactive

Hi team, can someone confirm the assay call for CCOc1ccc(NC(=O)CSc2oc(-c3ccccc3)nc2S(=O)(=O)c2ccc(C)cc2)cc1 ?
inactive

Hi team, can someone confirm the assay call for Nc1c(C(=O)Nc2ccccc2F)sc2nc3c(cc12)CCCC3 ?
inactive

Hi team, can someone confirm the assay call for Cn1ccc(=O)c(C(=O)Nc2nsc3ccc([N+](=O)[O-])cc23)c1 ?
inactive

Hi team, can someone confirm the assay call for CS(=O)(=O)c1ccc(-c2cnn3ccc(-c4cccc(S(=O)(=O)C5CC5)c4)nc23)cc1 ?
inactive

Hi team, can someone confirm the assay call for COC(=O)[C@]1(C)CCC[C@]2(C)[C@H]3C[C@H]4C(C(C)C)=C[C@]3(CC[C@H]21)[C@@H]1C(=O)CC[C@H](OCCC#N)[C@@H]14 ?
inactive

Hi team, can someone confirm the assay call for COc1ccccc1CNc1c2ccccc2nc2ccccc12 ?
active

Hi team, can someone confirm the assay call for Cc1cc(S(=O)(=O)/N=C(\N)n2nc(C)c(C)c2C)c(SCc2ccccc2)cc1Cl ?
inactive

Hi team, can someone confirm the assay call for O=c1c2ccccc2n2cnc3ccc(Cl)c1c32 ?
inactive

Hi team, can someone confirm the assay call for O=C(Nc1ccccc1)Nc1ncnc2c1ncn2-c1ccc(Cl)cc1 ?
inactive

Hi team, can someone confirm the assay call for O=C1c2c(c3c4ccccc4[nH]c3c3ccc4ccccc4c23)C(=O)N1CCN1CCOCC1 ?
active

Hi team, can someone confirm the assay call for COc1ccc(C2CC(c3ccc(Nc4nc(Nc5ccccc5)nc(Nc5ccccc5)n4)cc3)=NN2C(C)=O)cc1 (stereo not drawn) ?
inactive

Hi team, can someone confirm the assay call for O=C(/C=C/c1cccc(Cl)c1)c1ccc(Nc2nc(Nc3ccc(F)cc3)nc(Nc3ccc(Cl)cc3)n2)cc1 ?
active

Hi team, can someone confirm the assay call for O=C(O)CCN1C(=O)/C(=C/C(Cl)=C/c2ccccc2)SC1=S ?
active

Hi team, can someone confirm the assay call for CCN(CC)CCCCCNc1cc(OC(=O)c2ccc(Cl)cc2)cc2cccnc12 ?
inactive

====

- System: SF-295 CNS
- Assay Details: NCI-60 one-dose screen, 48 h (100 = growth as untreated, 0 = no growth, -100 = all killed)
- Study Conditions: 10 µM unless noted
About 83,000 compounds went through this panel and 20% of them were active in at least one assay; those are over-represented in the sample as a whole.
Mark Fulfilled for growth under 20%, Not fulfilled if at or over.

Consider the worked cases shown below.
[[record]]
molecule = "COCCn1cc(-c2nc(-c3cc4cccnc4[nH]3)cs2)c2cc(OC)ccc21"
classification = "Fulfilled"

[[record]]
molecule = "CC1(C)COB(OCC(C)(C)COB2OCC(C)(C)CO2)OC1"
classification = "Not fulfilled"


Dear reviewer, please state whether COc1ccc2c(c1)N(CCO)C1=C(C(=O)OC1)C2c1cccc(F)c1 (stereo not given) has growth strictly beneath 20%.
Fulfilled

Dear reviewer, please state whether Nc1n[nH]c2ccc([C@H]3[C@@H]4C5CCC(C5)[C@@H]4c4c(ccc5[nH]ncc45)N3S(=O)(=O)C3CC3)cc12 (stereo not given in full) has growth strictly beneath 20%.
Fulfilled

Dear reviewer, please state whether Cn1cc(C(=O)c2nc(-c3c[nH]c4ccccc34)no2)c2cc(F)ccc21 has growth strictly beneath 20%.
Not fulfilled

Dear reviewer, please state whether C=C(C)[C@@H]1CC[C@]2(CO)CC[C@]3(C)[C@H](CC[C@@H]4[C@@]5(C)CC[C@H](NCO)C(C)(C)[C@@H]5CC[C@]43C)[C@@H]12 has growth strictly beneath 20%.
Not fulfilled

Dear reviewer, please state whether COc1ccc(/C=N/C2=C(C#N)C(c3ccccc3)c3ccc4ccccc4c3O2)cc1 (stereo not given) has growth strictly beneath 20%.
Fulfilled

Dear reviewer, please state whether Cn1cc(-c2nonc2-c2cn(C)c3ccccc23)c2ccccc21 has growth strictly beneath 20%.
Fulfilled

Dear reviewer, please state whether NNc1nc(-c2cccnc2)nc2c1sc(=S)n2-c1ccccc1 has growth strictly beneath 20%.
Not fulfilled

Dear reviewer, please state whether CCCNc1nc2ccccc2c2c1S(=O)(=O)c1ccc(Cl)cc1C2=O has growth strictly beneath 20%.
Fulfilled

====

- Test system: LOX IMVI melanoma
- Assay Details: NCI-60 one-dose screen, 48 h (100 = growth as untreated, 0 = no growth, -100 = all killed)
- Study Conditions: 10 µM unless noted
The panel holds about 83,000 compounds, 20% with a hit somewhere; the sample as a whole holds those more often.
Readout Name: growth (%)
One number for each entry, in %.

Worked examples follow.
[[record]]
molecule = "O=C(Nc1ccc(Oc2cccc(F)c2)c(Cl)c1)c1cccnc1"
units_symbol = "%"
reported_value = 52.8

[[record]]
molecule = "COc1ccccc1CNc1c2ccccc2nc2ccccc12"
units_symbol = "%"
reported_value = 18.9

[[record]]
molecule = "CC(=O)O[C@H]1CC2CCC3C(CC[C@@]4(C)C3C[C@H]([N+]3(C)CCCCC3)[C@@H]4OC(C)=O)[C@@]2(C)C[C@@H]1N1CCCCC1 (some centres undefined)"
units_symbol = "%"
reported_value = 95.2


Parameters: items (list). Returns: growth for each item.
1. COc1cc2c(c(OC)c1OC)CCC(c1cccc(C(=O)Nc3ccc(C#N)cc3)c1)O2 (centres undefined)
2. O=S(=O)(Nc1ccc(F)cc1F)c1ccc(-c2cnc(C3CC3)o2)cc1
3. O=C(COc1ccc(-c2nc3cc(Cl)c(Cl)cc3[nH]2)cc1)N=Nc1c(O)[nH]c2ccc(Cl)cc12
4. COc1cc(/C=C2/C=C(c3ccccc3)N(CCc3ccc(S(N)(=O)=O)cc3)C2=O)cc(OC)c1OC
5. O=C(C[C@]1(O)C(=O)Nc2ccccc21)c1cccc(C(F)(F)F)c1
6. CCCCNCCCCCNc1cc(OC)cc2cccnc12

1. 39.5
2. 41.5
3. 60.8
4. 101
5. 93.2
6. 105

The measured values listed here are drawn from PubChem BioAssay (NCI).
